meta.source: patent US4921850A

Test system: Staph. aureus 209-P
Experiment: Anti-bacterial activity (MIC), agar dilution
Format: cell-based
Settings: Staphylococcus aureus, 209P, 18 h, Staph. aureus 209-P; agar dilution, about 10^6 CFU/ml, 18 hours, 37° C.; read-out: MIC
Experimental: MIC (μg/ml) were determined by an agar dilution method [Chemotherapy (Japan), 29, 76-79, 1981]. Overnight cultures of the bacterial strains in Mueller-Hinton broth were diluted to final concentration of about 10^6 CFU/ml, and 5 μl of each bacterial suspension was spotted onto Mueller-Hinton agar plates that contained twofold serial dilutions of antibiotics. MICs were measured after incubation for 18 hours at 37° C.
# maps each entry to its MIC
Note: unit µg/mL is implicit; provide only the numeric part.

CN(C)CCn1nnnc1SCC1=C(C(=O)O)N2C(=O)[C@@H](NC(=O)Cc3csc(N)n3)[C@H]2SC1 [CTM, Cefotiam, reference compound]
0.2

Value lookup for MIC; key = `CNC(=O)[C@H](C)[N+](C)(C)C/C=C/C1=C(C(=O)[O-])N2C(=O)[C@@H](NC(=O)/C(=N\OCF)c3nsc(N)n3)[C@H]2SC1`
0.2

Quick one: `C[C@H](C(N)=O)[N+](C)(C)C/C=C/C1=C(C(=O)[O-])N2C(=O)[C@@H](NC(=O)/C(=N\OCF)c3nsc(N)n3)[C@H]2SC1`
0.2

Another molecule: `C[C@@H](CO)[N+](C)(C)C/C=C/C1=C(C(=O)[O-])N2C(=O)[C@@H](NC(=O)/C(=N\OCC#N)c3nsc(N)n3)[C@H]2SC1`
0.4

Param item: `Nc1nc(/C(=N/OCF)C(=O)N[C@@H]2C(=O)N3C(C(=O)[O-])=C(/C=C/C[n+]4ccc(C(=O)NCCO)cc4)CS[C@H]23)ns1`
0.4

Please give the result for `Nc1nc(/C(=N/OC(F)F)C(=O)N[C@@H]2C(=O)N3C(C(=O)[O-])=C(/C=C/C[N+]45CCN(CC4)CC5)CS[C@H]23)ns1` too.
0.2

----------
# MIC annotations
Test system: Staph. aureus 209-P
Assay: Anti-bacterial activity (MIC), agar dilution
Format: cell-based
Conditions: Staphylococcus aureus, 209P, 18 h, Staph. aureus 209-P; agar dilution, about 10^6 CFU/ml, 18 hours, 37° C.; read-out: MIC
Report only the number, with the unit µg/mL understood.

A selection of reference data follows.
Nc1nc(/C(=N/OCF)C(=O)N[C@@H]2C(=O)N3C(C(=O)[O-])=C(/C=C/C[N+]4(CCO)CCC[C@@H]4CO)CS[C@H]23)ns1 (stereo partly drawn)
0.2
C[N+](C)(C/C=C/C1=C(C(=O)[O-])N2C(=O)[C@@H](NC(=O)/C(=N\OCF)c3nsc(N)n3)[C@H]2SC1)Cc1cnc[nH]1
0.4

Field: next compound
I have this compound here, `CC(C)(CO)[N+](C)(C)C/C=C/C1=C(C(=O)[O-])N2C(=O)[C@@H](NC(=O)/C(=N\OCF)c3nsc(N)n3)[C@H]2SC1` , and I need its recorded MIC.
0.2

----------
System: Kleb. pneumoniae EK-6
Assay: Anti-bacterial activity (MIC), agar dilution
Assay type: cell-based
Conditions: Klebsiella pneumoniae, EK6, 18 h, Kleb. pneumoniae EK-6; agar dilution, about 10^6 CFU/ml, 18 hours, 37° C.; read-out: MIC
result_type: MIC (µg/mL)
Use µg/mL as the unit, but write only the number.

CC(=N)N1CC[N+](C)(C/C=C/C2=C(C(=O)[O-])N3C(=O)[C@@H](NC(=O)/C(=N\OCF)c4nsc(N)n4)[C@H]3SC2)CC1 [Example 26]
0.1

Notebook entry, Kleb. pneumoniae EK-6 assay: MIC of C[N+](C)(C/C=C/C1=C(C(=O)[O-])N2C(=O)[C@@H](NC(=O)/C(=N\OCF)c3nsc(N)n3)[C@H]2SC1)CC(=O)N(CCO)CCO [Example 74] = ?
0.05

Also, CC(=O)C[N+](C)(C)C/C=C/C1=C(C(=O)[O-])N2C(=O)[C@@H](NC(=O)/C(=N\OCC#N)c3nsc(N)n3)[C@H]2SC1 [Example 154] please.
0.1

Please give the result for C[N+]1(C/C=C/C2=C(C(=O)[O-])N3C(=O)[C@@H](NC(=O)/C(=N\OCC#N)c4nsc(N)n4)[C@H]3SC2)CCN(S(N)(=O)=O)CC1 [Example 156] too.
0.1

Same read-out for CNC(=O)[C@H](C)[N+](C)(C)C/C=C/C1=C(C(=O)[O-])N2C(=O)[C@@H](NC(=O)/C(=N\OCF)c3nsc(N)n3)[C@H]2SC1 [Example 58] ?
0.05
